Below, each entry is listed with its recorded relative viability.
- Tested on: HOP-62
- METHOD DESCRIPTION: relative viability (nuclei count vs DMSO), 5 days (fraction); higher = more cells survive
- CONDITION: first compound 0.01 µM
# print the numeric value only

Recorded relative viability, per entry:
CC(C)Oc1cc(Nc2nc(N[C@@H](C)c3ccc(F)cn3)ncc2Cl)n[nH]1 [AZ23] + C[C@@H](Oc1cc(-c2cnn(C3CCNCC3)c2)cnc1N)c1c(Cl)ccc(F)c1Cl [Crizotinib] (partner 1 µM): 0.992
CC(C)Oc1cc(Nc2nc(N[C@@H](C)c3ccc(F)cn3)ncc2Cl)n[nH]1 [AZ23] + NC(=O)Nc1cc(-c2cccc(F)c2)sc1C(=O)N[C@H]1CCCNC1 [AZD7762] (partner 0.2 µM): 0.493
CC(C)Oc1cc(Nc2nc(N[C@@H](C)c3ccc(F)cn3)ncc2Cl)n[nH]1 [AZ23] + CS(=O)(=O)CCNCc1ccc(-c2ccc3ncnc(Nc4ccc(OCc5cccc(F)c5)c(Cl)c4)c3c2)o1 [Lapatinib] (partner 2 µM): 1.14
CC(C)Oc1cc(Nc2nc(N[C@@H](C)c3ccc(F)cn3)ncc2Cl)n[nH]1 [AZ23] + O=C(CCCCCCC(=O)Nc1ccccc1)NO [Vorinostat] (partner 1 µM): 0.527

State its relative viability for this molecule: CC(C)Oc1cc(Nc2nc(N[C@@H](C)c3ccc(F)cn3)ncc2Cl)n[nH]1 [AZ23] + CC(C)C[C@H](NC(=O)[C@H](Cc1ccccc1)NC(=O)c1cnccn1)B(O)O [Bortezomib] (partner 0.002 µM) 0.821

====

- Test system: BEN
- METHOD DESCRIPTION: relative viability (nuclei count vs DMSO), 5 days (fraction); higher = more cells survive
- CONDITION: first compound 0.1265 µM
Reported relative viability maps to class as: low value = under 0.4, medium value = from 0.4 up to 0.7, high value = 0.7 and over

Solved entries:
Clc1ccc(Nc2nnc(Cc3ccncc3)c3ccccc23)cc1 [Vatalanib] + N=C(N)NC(=N)NCCc1ccccc1 [Phenformin] (partner 250 µM): low value
C[C@@H]1CN(CC(=O)Nc2ccc3c(c2)Cc2cccc(-c4cc(=O)cc(N5CCOCC5)o4)c2S3)C[C@H](C)O1 + Cc1nc(NC(=O)N2CCC[C@H]2C(N)=O)sc1-c1ccnc(C(C)(C)C(F)(F)F)c1 [Alpelisib] (partner 2 µM): high value
C[C@@H]1CN(CC(=O)Nc2ccc3c(c2)Cc2cccc(-c4cc(=O)cc(N5CCOCC5)o4)c2S3)C[C@H](C)O1 + CS(=O)(=O)N1CCN(Cc2cc3nc(-c4cccc5[nH]ncc45)nc(N4CCOCC4)c3s2)CC1 [Pictilisib] (partner 1 µM): medium value
Clc1ccc(Nc2nnc(Cc3ccncc3)c3ccccc23)cc1 [Vatalanib] + Nc1ncn([C@H]2C[C@H](O)[C@@H](CO)O2)c(=O)n1 [Decitabine] (partner 2 µM): high value
COc1cc(N2CCC(C(N)=O)CC2)ccc1Nc1nc(N)c(Cl)c(Nc2ccccc2S(=O)(=O)C(C)C)n1 [HG-5-88-01] + N=C(N)NC(=N)NCCc1ccccc1 [Phenformin] (partner 250 µM): low value

Form: Item = Clc1ccc(Nc2nnc(Cc3ccncc3)c3ccccc23)cc1 [Vatalanib] + C[C@]1(O)C[C@@H](c2nc(-c3ccc4ccc(-c5ccccc5)nc4c3)c3c(N)nccn32)C1 [Linsitinib] (partner 1 µM) ; Class = ? high value

Form: Item = Clc1ccc(Nc2nnc(Cc3ccncc3)c3ccccc23)cc1 [Vatalanib] + O=C(CCCCCCC(=O)Nc1ccccc1)NO [Vorinostat] (partner 1 µM) ; Class = ? medium value

Form: Item = C[C@@H]1CN(CC(=O)Nc2ccc3c(c2)Cc2cccc(-c4cc(=O)cc(N5CCOCC5)o4)c2S3)C[C@H](C)O1 + N=C(N)NC(=N)NCCc1ccccc1 [Phenformin] (partner 250 µM) ; Class = ? low value

====

- Test system: EMC-BAC-2
- METHOD DESCRIPTION: relative viability (nuclei count vs DMSO), 5 days (fraction); higher = more cells survive
- CONDITION: first compound 0.1265 µM
Below, each entry is listed with its recorded relative viability.
# print the numeric value only

Recorded relative viability, per entry:
COc1cc(N2CCC(C(N)=O)CC2)ccc1Nc1nc(N)c(Cl)c(Nc2ccccc2S(=O)(=O)C(C)C)n1 [HG-5-88-01] + O=C(c1cc(Cc2n[nH]c(=O)c3ccccc23)ccc1F)N1CCN(C(=O)C2CC2)CC1 [Olaparib] (partner 8 µM): 0.526
C[C@@H]1CN(CC(=O)Nc2ccc3c(c2)Cc2cccc(-c4cc(=O)cc(N5CCOCC5)o4)c2S3)C[C@H](C)O1 + CC(C)C[C@H](NC(=O)[C@H](Cc1ccccc1)NC(=O)c1cnccn1)B(O)O [Bortezomib] (partner 0.002 µM): 1.1
COc1cc(N2CCC(C(N)=O)CC2)ccc1Nc1nc(N)c(Cl)c(Nc2ccccc2S(=O)(=O)C(C)C)n1 [HG-5-88-01] + Cc1cc(Nc2cc(N3CCN(C)CC3)nc(Sc3ccc(NC(=O)C4CC4)cc3)n2)n[nH]1 [Tozasertib] (partner 0.1 µM): 0.288

Next compound, please.
Lab note: EMC-BAC-2 assay, enter relative viability for C[C@@H]1CN(CC(=O)Nc2ccc3c(c2)Cc2cccc(-c4cc(=O)cc(N5CCOCC5)o4)c2S3)C[C@H](C)O1 + CC1(C)CCC(c2ccc(Cl)cc2)=C(CN2CCN(c3ccc(C(=O)NS(=O)(=O)c4ccc(N[C@H](CCN5CCOCC5)CSc5ccccc5)c(S(=O)(=O)C(F)(F)F)c4)cc3)CC2)C1 [Navitoclax] (partner 0.5 µM) here 1.12

====

- Tested on: NCI-H2405
- METHOD DESCRIPTION: relative viability (nuclei count vs DMSO), 5 days (fraction); higher = more cells survive
- CONDITION: first compound 4 µM
MEASURED ATTRIBUTE: relative viability

State its relative viability for this molecule: Clc1ccc(Nc2nnc(Cc3ccncc3)c3ccccc23)cc1 [Vatalanib] + CC1(C)CCC(c2ccc(Cl)cc2)=C(CN2CCN(c3ccc(C(=O)NS(=O)(=O)c4ccc(N[C@H](CCN5CCOCC5)CSc5ccccc5)c(S(=O)(=O)C(F)(F)F)c4)cc3)CC2)C1 [Navitoclax] (partner 0.5 µM) 0.713

State its relative viability for this molecule: Clc1ccc(Nc2nnc(Cc3ccncc3)c3ccccc23)cc1 [Vatalanib] + C[C@]1(O)C[C@@H](c2nc(-c3ccc4ccc(-c5ccccc5)nc4c3)c3c(N)nccn32)C1 [Linsitinib] (partner 1 µM) 0.93

State its relative viability for this molecule: C[C@@H]1CN(CC(=O)Nc2ccc3c(c2)Cc2cccc(-c4cc(=O)cc(N5CCOCC5)o4)c2S3)C[C@H](C)O1 + Nc1ncn([C@H]2C[C@H](O)[C@@H](CO)O2)c(=O)n1 [Decitabine] (partner 2 µM) 0.803

State its relative viability for this molecule: Clc1ccc(Nc2nnc(Cc3ccncc3)c3ccccc23)cc1 [Vatalanib] + CC(=O)Nc1cccc(-n2c(=O)n(C3CC3)c(=O)c3c(Nc4ccc(I)cc4F)n(C)c(=O)c(C)c32)c1 [Trametinib] (partner 0.02 µM) 0.557

State its relative viability for this molecule: Clc1ccc(Nc2nnc(Cc3ccncc3)c3ccccc23)cc1 [Vatalanib] + CC(C)C[C@H](NC(=O)[C@H](Cc1ccccc1)NC(=O)c1cnccn1)B(O)O [Bortezomib] (partner 0.002 µM) 0.939

State its relative viability for this molecule: Clc1ccc(Nc2nnc(Cc3ccncc3)c3ccccc23)cc1 [Vatalanib] + N=C(N)NC(=N)NCCc1ccccc1 [Phenformin] (partner 250 µM) 0.368

====

- Tested on: HCC-827
- METHOD DESCRIPTION: relative viability (nuclei count vs DMSO), 5 days (fraction); higher = more cells survive
- CONDITION: first compound 4 µM
MEASURED ATTRIBUTE: relative viability

COc1cc(N2CCC(C(N)=O)CC2)ccc1Nc1nc(N)c(Cl)c(Nc2ccccc2S(=O)(=O)C(C)C)n1 [HG-5-88-01] + CCNC(=O)c1noc(-c2cc(C(C)C)c(O)cc2O)c1-c1ccc(CN2CCOCC2)cc1 [Luminespib] (partner 0.01 µM): 0.361

State its relative viability for this compound: Clc1ccc(Nc2nnc(Cc3ccncc3)c3ccccc23)cc1 [Vatalanib] + Cc1nc(NC(=O)N2CCC[C@H]2C(N)=O)sc1-c1ccnc(C(C)(C)C(F)(F)F)c1 [Alpelisib] (partner 2 µM) 0.786

====

Below, each entry is listed with its recorded relative viability.
- Tested on: NCI-H441
- METHOD DESCRIPTION: relative viability (nuclei count vs DMSO), 5 days (fraction); higher = more cells survive
- CONDITION: first compound 0.01 µM
# print the numeric value only

Recorded relative viability, per entry:
CC(C)Oc1cc(Nc2nc(N[C@@H](C)c3ccc(F)cn3)ncc2Cl)n[nH]1 [AZ23] + Cc1nc(Nc2ncc(C(=O)Nc3c(C)cccc3Cl)s2)cc(N2CCN(CCO)CC2)n1 [Dasatinib] (partner 0.075 µM): 0.683
CC(C)Oc1cc(Nc2nc(N[C@@H](C)c3ccc(F)cn3)ncc2Cl)n[nH]1 [AZ23] + NC(=O)Nc1cc(-c2cccc(F)c2)sc1C(=O)N[C@H]1CCCNC1 [AZD7762] (partner 0.2 µM): 1.17

State its relative viability for this compound: CC(C)Oc1cc(Nc2nc(N[C@@H](C)c3ccc(F)cn3)ncc2Cl)n[nH]1 [AZ23] + COc1cc2c(Oc3ccc(NC(=O)C4(C(=O)Nc5ccc(F)cc5)CC4)cc3F)ccnc2cc1OCCCN1CCOCC1 [Foretinib] (partner 0.25 µM) 1.52
